assay: in vivo; details: mouse, in vivo
assay.endpoint: selectivity ratio at 24 h

[Q] In one line, give reported selectivity ratio at 24 h of the entry CCN(CC)C(C)C(=O)c1ccccc1 (stereo not shown) [diéthylpropion, reference compound] .
[A] ~8

----------
assay: in vivo; details: mouse, in vivo, ip, rapport, LD50 ratio isolated/grouped mice (formula not readable), same conditions, 24 h
assay.endpoint: selectivity ratio

[Q] Look up and report measured selectivity ratio for this entry: CC(Cc1ccccc1)N(C)Cc1ccccc1 (stereo not shown) [benzophétamine, reference compound]
[A] ~4

----------
test: in vivo; settings: mouse, in vivo, ip, DL50, grouped mice, 48 h after administration
assay.endpoint: LD50 at 48 h

[Q] Could you please provide reported LD50 at 48 h for `O=C(CC(=O)N(c1ccc(F)cc1)c1ccc(F)cc1)NO` ? Thanks!
[A] ~480 mg/kg

----------
assay: in vivo; conditions: mouse, in vivo, ip, rapport, LD50 ratio isolated/grouped mice (formula not readable), 72 h
assay.endpoint: selectivity ratio
Answers are plain numbers.

[Q] Find the measured selectivity ratio of O=C(CC(=O)N(c1ccc(F)cc1)c1ccc(F)cc1)NO [CRL 41131] and report it.
[A] 2.97

----------
experiment: in vivo; conditions: mouse, in vivo, ip, dose létale 50% (DL50), isolated mice, 24 h after administration
assay.endpoint: LD50 at 24 h

[Q] Quote LD50 at 24 h reported for O=C(CC(=O)N(c1ccccc1)c1ccccc1)NO [CRL 40385, reference compound] please.
[A] ~1500 mg/kg

More entries:
[Q] Given the compound `O=C(CC(=O)N(c1ccc(F)cc1)c1ccc(F)cc1)NO` , write its reported LD50 at 24 h.
[A] ~500 mg/kg

----------
assay: in vivo; settings: mouse, in vivo, ip, DL50, isolated mice, 48 h after administration
assay.endpoint: LD50 at 48 h

[Q] Determine from records and report LD50 at 48 h for `O=C(CC(=O)N(c1ccc(F)cc1)c1ccc(F)cc1)NO`
[A] ~300 mg/kg

----------
assay: in vivo; conditions: mouse, in vivo, ip, DL50, grouped mice, 72 h after administration
assay.endpoint: LD50 at 72 h

[Q] Input `O=C(CC(=O)N(c1ccc(F)cc1)c1ccc(F)cc1)NO` , output reported LD50 at 72 h.
[A] ~370 mg/kg

----------
Would you mind telling me the reported LD50 at 24 h of each entry?
Assay: in vivo
Details: mouse, in vivo, ip, dose létale 50% (DL50), grouped mice, 24 h after administration
Description: Le CRL 41131, en suspension dans une solution de gomme arabique à 5%, a été administré par voie intrapéritonéale sous un volume de 20 ml/kg chez la souris (mâle, NMRI, Evic Ceba) et de 5 ml/kg chez le rat (mâle, CD1, Sprague Dawley, Charles River). Aussitôt après l'administration de CRL 41131, les souris groupées par lots de 10 sont placées dans des boîtes en Plexiglass (20 x 10 x 10 cm). On note le nombre d'animaux morts, toutes les heures pendant 4 h et après 24, 48 et 72 h. […]

[Q] Output LD50 at 24 h of O=C(CC(=O)N(c1ccccc1)c1ccccc1)NO [CRL 40385, reference compound]
[A] ~1050 mg/kg

---
[Q] Specify measured LD50 at 24 h for `O=C(CC(=O)N(c1ccc(F)cc1)c1ccc(F)cc1)NO` .
[A] ~700 mg/kg

Value source: patent EP0256909B1
